Each recorded value in this set is attributed to PubChem BioAssay (NCI).

tested on: ACHN renal; experiment: NCI tumour cell line growth inhibition, 48 h
reported.property: GI50

Examples with their reported GI50 follow.
{"columns": ["molecule", "observed"],
 "data": [
  ["O=C(Nc1ccc(-c2nc(-c3cccc(OCCN4CCOCC4)c3)c(-c3ccnc(Br)c3)[nH]2)cc1)c1ccccc1", "3.55 µM"],
  ["CC(C)(C)OC(=O)NCCCn1c2c(c3ccccc3c1=O)C(=O)c1ccccc1-2", "14.3 µM"],
  ["COc1cnc2c(c1)C(=O)c1c-2n(CCCNCCO)c(=O)c2ccncc12", "0.553 µM"]
]}

Give one value of GI50 per listed molecule.
1. C=C1CCC2(C#N)[C@H]3[C@H](CC[C@@H]2C)[C@@H](C)C[C@@H](CC(C)(C)NC(=O)CN2CCC2=O)[C@H]13 (some centres undefined)
2. Cc1ccc(S(=O)(=O)c2nc(-c3ccccc3)oc2S(C)=O)cc1 (centres undefined)
3. Cc1c(-c2ccnc(N)n2)c2c(n1Cc1ccccc1)C(=O)c1ccccc1C2=O
4. Cc1nc2c(n1C)C(=O)c1ccccc1C2=O

Result ::
1. 11.3 µM
2. 1.52 µM
3. 8.34 µM
4. > 100 µM

Give one value of GI50 per listed molecule.
1. O=c1cc(N/N=C/c2ccc(F)cc2)c2cc(Cl)ccc2[nH]1
2. COc1ccc(C(=O)NNc2nc(Cl)nc(N3CCN(C(c4ccccc4)c4ccccc4)CC3)n2)cc1

Result ::
17.2 µM
1.76 µM
